# testDetails: protein stability index of a GFP-peptide fusion (GPS, HEK-293T) (PSI 1-6); higher = more stable;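 further: 24-mer peptide tiles fused after GFP, lentivirally expressed, FACS-sorted into six equal bins by GFP/DsRed ratio, decoded by Illumina sequencing, PSI is the read-weighted mean bin number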
# assayContext: treatment: DMSO; c terminus: a fixed tail appended
Class assignment keyed on protein stability index, ranges lower band (below 3), central band (3 to below 5), upper band (5 or more)

[[record]]
sequencedata = "CNVKYKRWALLSCRGKKPSRIYGQ [KLHDC10]"
categorylabel = "lower band"

[[record]]
sequencedata = "ESCEEKNQLILTASADRTVIVWDG [WDR41]"
categorylabel = "central band"

[[record]]
sequencedata = "HVLIHNTLQQLQAALRLAPAPALP [SERTAD3]"
categorylabel = "lower band"

[[record]]
sequencedata = "SLYENDCIFDKFECVWNGSDSVIM [PPP2R2B]"
categorylabel = "lower band"

[[record]]
sequencedata = "TFIVSCKFSPDGKYVVSGFDVDHG [WDR88]"
categorylabel = "lower band"

[[record]]
sequencedata = "EEKRRREEEERLRREEEERRRIEE [ACBD3]"
categorylabel = "upper band"

[[record]]
sequencedata = "DTPCTNRGLPLLKTDFGSCLLQPP [DLC1]"
categorylabel = "central band"

[[record]]
sequencedata = "QDTELPKAEECDTITLNCPRNSDM [EDARADD]"
categorylabel = "upper band"

[[record]]
sequencedata = "KQCIVAHPVNPPYYIPLVELVPHP [CRYL1]"
categorylabel = "lower band"

[[record]]
sequencedata = "MAVDKDTTNVGRYPVGRFPSLHVV [FEM1A]"
categorylabel = "lower band"

[[record]]
sequencedata = "FNGKGKKIRKPRTIYCSLQLQALN [DLX1]"
categorylabel = "lower band"

[[record]]
sequencedata = "KLDLWSFLDIPRSRLVKYPLLLKE [NET1]"
categorylabel = "lower band"

[[record]]
sequencedata = "LARADLEMQIENLKEELAYLKKNH [KRT17]"
categorylabel = "central band"

[[record]]
sequencedata = "PGLGQESKAPGSCDPGTDPCPEDA [TLE6]"
categorylabel = "upper band"

[[record]]
sequencedata = "RAWIPSENIQDITVNIHRLHVKRS [ZMYND11]"
categorylabel = "lower band"

[[record]]
sequencedata = "PHAPPFAGGHPAQLGLGRGASTFK [JUNB]"
categorylabel = "central band"

[[record]]
sequencedata = "YIAAFLHVLLPVALEFQPQLVLVA [HDAC6]"
categorylabel = "central band"

[[record]]
sequencedata = "RYILPVYGICREPVGLVMEYMETG [RIPK4]"
categorylabel = "lower band"

[[record]]
sequencedata = "RTSKSRGFAFITFENPADAKNAAK [RBMY1A1]"
categorylabel = "central band"

[[record]]
sequencedata = "LGSDDEEQEDPADYCKGGYHPVKI [SRPK2]"
categorylabel = "central band"

[[record]]
sequencedata = "AHRTEFYRNLTHNPPSDFSFQNMN [STK38L]"
categorylabel = "lower band"

[[record]]
sequencedata = "KSPDNEDSGDSKDIRLTLMEEVLL [GOLPH3L]"
categorylabel = "central band"

[[record]]
sequencedata = "RKRMGTRRGRHEQSPTSRPRKVSS [C22orf15]"
categorylabel = "central band"

[[record]]
sequencedata = "PPVWYLKEEDHYQRARKEREKEDY [RHOBTB2]"
categorylabel = "upper band"

[[record]]
sequencedata = "KAEECDTITLNCPRNSDMKNQGEE [EDARADD]"
categorylabel = "upper band"

[[record]]
sequencedata = "TYMSADDLRINLWNFEITNQSFNI [PPP2R2B]"
categorylabel = "lower band"

[[record]]
sequencedata = "FRVFHCTQYVRHSSDPFYTPEPDT [TPH1]"
categorylabel = "lower band"

[[record]]
sequencedata = "RYHFATGVWHQMGTDGYMPRELAS [KLHDC10]"
categorylabel = "lower band"

[[record]]
sequencedata = "VDFLEPDSGTCPEVDEEGFTVRPD [FCHO1]"
categorylabel = "upper band"

[[record]]
sequencedata = "INTLNGLKLQTKTIKVSYARPSSA [ELAVL3]"
categorylabel = "lower band"

[[record]]
sequencedata = "KVRSYVKRALAEGAQIWCGEGVDK [ALDH8A1]"
categorylabel = "lower band"

[[record]]
sequencedata = "PLELMRTKLQAQHVSYRELGACVR [SLC25A39]"
categorylabel = "lower band"


====

# testDetails: protein stability index of a GFP-peptide fusion (GPS, HEK-293T) (PSI 1-6); higher = more stable
# assayContext: treatment: MLN4924 1 uM, 8 h; c terminus: a fixed tail appended
Label scheme for protein stability index: lower than 3 is criterion not met, 3 and above is criterion met.

[[record]]
sequencedata = "ARRTTRSEPIRRAGKSGTSTPTTP [MAP2]"
categorylabel = "criterion met"

[[record]]
sequencedata = "VWWVSQFVKYLIRPQPWLEKEIEE [FUT8]"
categorylabel = "criterion not met"

[[record]]
sequencedata = "KQLLSNKELILDKVYTHPKWNTQT [ZC2HC1C]"
categorylabel = "criterion met"

[[record]]
sequencedata = "RLMRDMAQLRLQLEVSQLEGSLQQ [SMG5]"
categorylabel = "criterion not met"

[[record]]
sequencedata = "VLCLIVLPLALYTATFAVHFMVLS [POMT2]"
categorylabel = "criterion met"

[[record]]
sequencedata = "RGRTQLFSLNPRSGSLITAGRIDR [PCDHGA10]"
categorylabel = "criterion met"

[[record]]
sequencedata = "AAKFPSGSQRARVVNTDHGSPEQL [SDE2]"
categorylabel = "criterion met"

[[record]]
sequencedata = "KTKVPSNDNSSDLLYDDLYDDDID [UBE2R2]"
categorylabel = "criterion met"

[[record]]
sequencedata = "FDDEEPRKFYVHIKPAPARAPACS [FCHO1]"
categorylabel = "criterion met"

[[record]]
sequencedata = "LIQRWYRRYVARLEMRRRCTWSIF [PPEF2]"
categorylabel = "criterion not met"

[[record]]
sequencedata = "KGTSPSSKYVKLNVGGALYYTTMQ [KCTD10]"
categorylabel = "criterion not met"

[[record]]
sequencedata = "LVQKDQHSFELDEKALASILLQDH [ATL3]"
categorylabel = "criterion met"

[[record]]
sequencedata = "LEDIYVMPEYRGQGIGSKIIKKVA [SAT2]"
categorylabel = "criterion met"

[[record]]
sequencedata = "TIAPTLIADLFVADQRSRMLSIFY [SPNS1]"
categorylabel = "criterion not met"


====

# protein stability index annotations
# testDetails: protein stability index of a GFP-peptide fusion (GPS, HEK-293T) (PSI 1-6); higher = more stable
# assayContext: treatment: MLN4924 1 uM, 8 h; c terminus: a fixed tail appended
metricName: protein stability index

[[record]]
sequencedata = "QKLADLRSLNEEHSKQYRCLSFQP [VDR]"
metricname = "protein stability index"
result = 3.24

[[record]]
sequencedata = "SVIVLDINDNAPTFQSSVLRVGIP [PCDHGC5]"
metricname = "protein stability index"
result = 2.21

[[record]]
sequencedata = "QGTAEEDHVDLSLSCTLVPRSGEQ [CDKN1A]"
metricname = "protein stability index"
result = 5.2

[[record]]
sequencedata = "NETRRKHETRLVEVDSGRQIEYEY [LMNB1]"
metricname = "protein stability index"
result = 4.57

[[record]]
sequencedata = "CGDELPWTLQRRLTRLRTASGHEP [PLEKHN1]"
metricname = "protein stability index"
result = 2.7

[[record]]
sequencedata = "STDTAVTNEWEKRLSTSPVRLAAR [EPB41L3]"
metricname = "protein stability index"
result = 4.44

[[record]]
sequencedata = "FQGSQGRAYLFNSVVNVGCGPAEE [YPEL3]"
metricname = "protein stability index"
result = 3.22

[[record]]
sequencedata = "PDLESGSESGADTISVNQTRVNLS [DLC1]"
metricname = "protein stability index"
result = 5.16

[[record]]
sequencedata = "SWACAFTNALTHTVAMSTLNFCGP [OR3A1]"
metricname = "protein stability index"
result = 3.15

[[record]]
sequencedata = "ADIPSVAFSSRLGGSRGAPGLLMA [DCAF4]"
metricname = "protein stability index"
result = 2.78

[[record]]
sequencedata = "ECRNPQELESIRQDRDALHMEGLI [FEM1B]"
metricname = "protein stability index"
result = 4.31

[[record]]
sequencedata = "KKRTEQEETIASLQMEVCRLKKEE [CEP70]"
metricname = "protein stability index"
result = 5.19

[[record]]
sequencedata = "AYALPAGLSAPARCLVRCLLRREP [TRIB3]"
metricname = "protein stability index"
result = 1.87

[[record]]
sequencedata = "RTDSREQKLDAFLQPLSKPLSSQP [MLH1]"
metricname = "protein stability index"
result = 4.44

[[record]]
sequencedata = "KPYECNECGKAFSQSSYLSQHRRI [ZNF232]"
metricname = "protein stability index"
result = 2.44

[[record]]
sequencedata = "KKNSSPPLSLYGQLLWREFFYTAA [CRY1]"
metricname = "protein stability index"
result = 2.67


====

# testDetails: protein stability index of a GFP-peptide fusion (GPS, HEK-293T) (PSI 1-6); higher = more stable
# assayContext: treatment: MLN4924 1 uM, 8 h; c terminus: a fixed tail appended
Response key: Fulfilled means protein stability index >= 3; Not fulfilled means protein stability index < 3.

[[record]]
sequencedata = "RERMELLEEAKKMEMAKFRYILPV [RIPK4]"
categorylabel = "Not fulfilled"

[[record]]
sequencedata = "HVLIHNTLQQLQAALRLAPAPALP [SERTAD3]"
categorylabel = "Not fulfilled"

[[record]]
sequencedata = "EDDDCDDDDDDDAQILPSRVQGGC [DRICH1]"
categorylabel = "Fulfilled"

[[record]]
sequencedata = "SMQYNGSYFDRGAKGGSRLCTPEG [DFFB]"
categorylabel = "Fulfilled"

[[record]]
sequencedata = "PLPGKAFLRQLPFRGDDGIFDDNF [SNX3]"
categorylabel = "Fulfilled"

[[record]]
sequencedata = "LNVDAAVQQWLQKGTPASKLILGM [CHIT1]"
categorylabel = "Not fulfilled"

[[record]]
sequencedata = "VDDFRLKYENELALRQSVEADING [KRT13]"
categorylabel = "Fulfilled"

[[record]]
sequencedata = "GCKVPQEALLKLLAGLTRPDVRPP [SEPHS2]"
categorylabel = "Not fulfilled"

[[record]]
sequencedata = "LSQVELQAAPGALPVSSPEPPPAL [TRIM55]"
categorylabel = "Fulfilled"

[[record]]
sequencedata = "RYILPVYGICREPVGLVMEYMETG [RIPK4]"
categorylabel = "Not fulfilled"

[[record]]
sequencedata = "RNSGPVVEKLKQMQEFFGLKVTGK [MMP1]"
categorylabel = "Fulfilled"

[[record]]
sequencedata = "CICWSPFLVTMANIGINGNHSLET [PTGFR]"
categorylabel = "Not fulfilled"

[[record]]
sequencedata = "SPTSGKFRRGSGSACSLLCCCGRD [MCOLN1]"
categorylabel = "Fulfilled"

[[record]]
sequencedata = "IRNEQFAIRRFQSMPVRLLGHSPV [CDC25B]"
categorylabel = "Not fulfilled"

[[record]]
sequencedata = "TLKQQHQQAVEQIAKAEETHSSLS [CCDC89]"
categorylabel = "Fulfilled"

[[record]]
sequencedata = "DNAPAVLHPRPDWEHSAPQRLPRS [PCDHGC5]"
categorylabel = "Fulfilled"

[[record]]
sequencedata = "RAALKLEPSNKTIHAELSKLVKKH [FKBP8]"
categorylabel = "Fulfilled"

[[record]]
sequencedata = "VGSLPVIVVGRLKVALEPQLWELG [LPCAT4]"
categorylabel = "Not fulfilled"

[[record]]
sequencedata = "KAEECDTITLNCPRNSDMKNQGEE [EDARADD]"
categorylabel = "Fulfilled"

[[record]]
sequencedata = "FVAGGISGTVAAVLTLPFDVVKTQ [SLC25A39]"
categorylabel = "Not fulfilled"

[[record]]
sequencedata = "IERSKIVSTMRCKTRQKSEKQMEE [PPEF2]"
categorylabel = "Fulfilled"

[[record]]
sequencedata = "LIKAGADIELGCSTPLMEAAQEGH [ANKRD17]"
categorylabel = "Fulfilled"

[[record]]
sequencedata = "TLRLEKLGHPALSQEEGKSALEDQ [PPFIA4]"
categorylabel = "Fulfilled"

[[record]]
sequencedata = "GEREPFAETDEHTGANTKKPEDTA [FAM9B]"
categorylabel = "Fulfilled"

[[record]]
sequencedata = "MALPGARARGWAAAARAAQRRRRV [RSAD1]"
categorylabel = "Fulfilled"

[[record]]
sequencedata = "TFIVSCKFSPDGKYVVSGFDVDHG [WDR88]"
categorylabel = "Not fulfilled"

[[record]]
sequencedata = "QEVTEPAVVAVDRQAIFPDTWTLT [PXN]"
categorylabel = "Fulfilled"

[[record]]
sequencedata = "FRVFHCTQYVRHSSDPFYTPEPDT [TPH1]"
categorylabel = "Not fulfilled"

[[record]]
sequencedata = "KTEITDLRRTMQELEIELQSQLSM [KRT15]"
categorylabel = "Fulfilled"

[[record]]
sequencedata = "AEDLGNLWENTRFTDCSFFVRGQE [SPOPL]"
categorylabel = "Fulfilled"

[[record]]
sequencedata = "EPPPVKQELPPYNGFGLVEDSAQN [EFHC1]"
categorylabel = "Fulfilled"

[[record]]
sequencedata = "DTGEEEEGGDESDLSSESSIKKKF [EHMT1]"
categorylabel = "Fulfilled"

[[record]]
sequencedata = "TIEELQQKILCSKSENARLVVQID [KRT33B]"
categorylabel = "Fulfilled"

[[record]]
sequencedata = "APDSGRSAPYSAAFLELPHGSGGS [TBX6]"
categorylabel = "Fulfilled"

[[record]]
sequencedata = "AHRTEFYRNLTHNPPSDFSFQNMN [STK38L]"
categorylabel = "Not fulfilled"

[[record]]
sequencedata = "YLEVAKHFKPHGFSSDKAKAGSSE [ATF4]"
categorylabel = "Fulfilled"

[[record]]
sequencedata = "QLFEDPTVDKEVEIRKKVLKIYNK [MNAT1]"
categorylabel = "Fulfilled"

[[record]]
sequencedata = "NSRRNINYRSFEPILRLLPQGISP [ZER1]"
categorylabel = "Not fulfilled"

[[record]]
sequencedata = "LFFTALMITVPIGLYFTTKSYIFE [VMA21]"
categorylabel = "Not fulfilled"

[[record]]
sequencedata = "KIREQNLQDIKTAGPQSQVLCGVV [ADD1]"
categorylabel = "Fulfilled"

[[record]]
sequencedata = "PRASISHVTCVDQSEHTMVLRCQL [C2CD2L]"
categorylabel = "Not fulfilled"

[[record]]
sequencedata = "ATTNACEKPIGSCVTNPCGPRSRC [KRT33B]"
categorylabel = "Fulfilled"

[[record]]
sequencedata = "DSRLMCSSVQKALFEEEDHVKKLQ [CCDC3]"
categorylabel = "Fulfilled"


The values you see were collected from the supplement of paper PMC10567573.
